Tested on: PPARG (murine PPARg2 or full-length human PPARG, 3xPPRE-luciferase reporter)
METHOD DESCRIPTION: Cell-based PPRE-luciferase transactivation assay in COS-1 cells
CONDITION CONTEXT: PPRE-luciferase, COS-1 cells; NA = not active; read-out: EC50 (nM) PPRE
MEASURE NAME: EC50 (nM)
Answers are plain numbers, in nM.

Examples with answers:
Cc1c(C)n(Cc2ccc(-c3ccccc3C(=O)O)cc2)c2ccc(C(=O)NCc3ccc(F)c(F)c3)cc12 [Example 77] : 95
CCC(NC(=O)c1ccc2c(ccn2Cc2cccc(-c3ccc(C(=O)O)cc3)c2)c1)c1ccccc1 (centres unmarked) [Example 67] : 2
Cc1c(C)n(Cc2ccc(-c3ccccc3C(=O)O)cc2)c2ccc(C(=O)NCc3ccc(-c4ccccc4)cc3)cc12 [Example 102] : 1.2
COC(=O)c1ccc(CNC(=O)c2ccc3c(c2)c(C)c(C)n3Cc2ccc(-c3ccccc3C(=O)O)cc2)cc1 [compound 16] : 59
Cc1c(C)n(Cc2ccc(-c3ccccc3C(=O)O)cc2)c2ccc(C(=O)NCC3COc4ccccc4O3)cc12 (centres unmarked) [Example 88] : 170

// each molecule listed below needs its EC50
1. Cc1c(C)n(Cc2ccc(-c3ccccc3C(=O)O)cc2)c2ccc(C(=O)NCc3cccc(Cl)c3)cc12 [Example 109]
2. Cc1c(C)n(Cc2ccc(-c3ccccc3C(=O)O)cc2)c2ccc(C(=O)NCc3ccc(I)cc3)cc12 [compound 7]

[12, 19]
